The entries below are paired with their reported protein stability index.
B1: SPSB1 (parent)
chain: DMRDPTYRPLKQELQGLDYCKPTR

Variants of: B1
experimentalProtocol: protein stability index of a GFP-peptide fusion (GPS, HEK-293T) (PSI 1-6); higher = more stable;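 also: lentivirally expressed fusions sorted by FACS into six bins by GFP to DsRed ratio, PSI derived from sequencing read proportions per bin multiplied by bin number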
condition: c terminus: a fixed tail appended
Write the number on its own, no unit after it.

> print(dat)
   mutant          measurementname  result
1    R24W  protein stability index    1.93
2     R8Y  protein stability index    3.13
3     R8I  protein stability index    3.31
4    Y19N  protein stability index    4.92
5    P22Q  protein stability index    4.26

INPUT: Provide only the value of recorded protein stability index for K21A
OUTPUT: 2.9

INPUT: Provide only the value of recorded protein stability index for Y19L
OUTPUT: 4.37

INPUT: Provide only the value of recorded protein stability index for D18R
OUTPUT: 3.97

INPUT: Provide only the value of recorded protein stability index for P9I
OUTPUT: 3.32

INPUT: Provide only the value of recorded protein stability index for D1C
OUTPUT: 3.94

INPUT: Provide only the value of recorded protein stability index for E13Y
OUTPUT: 2.41
